Just for reference, ChEMBL document CHEMBL1157539 is where these values come from.

system: HepG2; test: GSK_TCMDC: Percent inhibition of human HepG2 cell line. Test compounds present at 10uM.; assay type: functional
Rule: measured Inhibition below 6% gets Y; anything equal to or greater than 6% gets N.

The following compounds have reported results that may help.
compound: O=C(CSc1nc(-c2ccccc2Cl)ns1)Nc1cccc(F)c1
class: Y

compound: CC(=O)Nc1ccc(C(=O)Nc2cccc(-c3ccc(-c4nc5ccccc5[nH]4)cc3)c2)cn1
class: N

compound: CN1CCN(c2ccc(Nc3ncc(C#N)c(Nc4ccccc4C(N)=O)n3)cc2)CC1.Cl
class: N

I'd appreciate it if you could check whether CCOC(=O)c1c(NC(NC(=O)c2ccc(C(C)(C)C)cc2)C(Cl)(Cl)Cl)sc2c1CCCC2 (stereo not given) has Inhibition smaller than 6%.
Y

====

The compounds listed here are annotated with their Inhibition.
test system: HepG2; test: GSK_TCMDC: Percent inhibition of human HepG2 cell line. Test compounds present at 10uM.; assay type: functional
# output: bare number, implied unit %

compound: Cl.Nc1c2c(nc3ccc(C(=O)Nc4cc(I)c(O)c(I)c4)cc13)CCCC2
readout.value: 14
--
compound: NC(=O)c1cccc(CNCc2ccc(-c3cccc(-c4nc5ccccc5[nH]4)c3)cc2)c1.O=C(O)C(F)(F)F
readout.value: 29
--
compound: COc1ccc(Cl)cc1N1CCN(CCCNC(=O)c2ccc(-c3nc4c(C)cccc4[nH]3)s2)CC1
readout.value: 0
--
compound: CCCCC(=O)Nc1nonc1-c1ccc(OCC)c(OCC)c1
readout.value: 9
--
compound: O=C(C=Cc1ccc(Cl)c(Cl)c1)NCCCCCN1CCC(CCCNS(=O)(=O)c2ccc(F)cc2)CC1
readout.value: 52

# Inhibition (compound: CCN(CC)CCN(Cc1ccc(-c2ccc(Cl)cc2)cc1)C(=O)Cn1c(CCc2cccc(F)c2F)nc(=O)c2ccccc21.O=C(O)C(O)C(O)C(=O)O ) is 45

Inhibition for Cc1ccc(C(=O)Cn2nc(-c3ccc(C)c(S(=O)(=O)N4CCCC4)c3)ccc2=O)cc1 is 0

Inhibition reading for CCc1ccc2c(c1O)CCN(C)C2Cc1ccccc1Cl.Cl (centres undefined) : 13

Memo: N=C(N)Nc1nc(-c2cccc(NC(=O)Cc3ccccc3)c2)cs1 , reported Inhibition: 1

====

tested on: Plasmodium falciparum; assay: GSK_TCMDC: Inhibition of Plasmodium falciparum Dd2 in whole red blood cells, using parasite LDH activity as an index of growth. Test compounds present at 2uM; assay type: functional
Classes are defined on Inhibition with ranges low value = under 5%, medium value = from 5% up to 60%, high value = 60% and over

Quick check: band for CC(C)C1=NC(=O)c2cc([N+](=O)[O-])ccc2CN1
low value

Which Inhibition band matches O=C(Nc1cccc(Cl)c1)N[C@H]1CCN(Cc2ccc(OCCCN3CCCCC3)cc2)C1 ?
low value

====

system: Plasmodium falciparum; assay: GSK_TCMDC: Inhibition of Plasmodium falciparum Dd2 in whole red blood cells, using parasite LDH activity as an index of growth. Test compounds present at 2uM; type: functional
Recorded Inhibition by entry
Express it in %; write the number only.

compound: COc1ccc(CNC(=O)c2cnc3cc(-c4c(C)noc4C)ccc3c2Nc2ccccc2C(C)(C)C)cc1.Cl
measurement.unit: %
Inhibition: 69
//
compound: OC(CNc1ccnc(Nc2ccc(Cl)cc2)n1)c1ccccc1C(F)(F)F (centres undefined)
measurement.unit: %
Inhibition: 28
//
compound: CCCCCCNc1c2ccccc2nc2ccccc12.Cl
measurement.unit: %
Inhibition: 32
//
compound: Cc1ccc(C)c(CN2CCC(CNC(=O)c3cc4ccc5cccnc5c4[nH]3)CC2)c1
measurement.unit: %
Inhibition: 10
//
compound: COc1ccc2ncc(F)c(CCN3CCC(NCc4cc5c(cn4)OCCS5)CC3)c2c1.Cl
measurement.unit: %
Inhibition: 40

Value of measured Inhibition for the entry CS(=O)(=O)c1cccc(-c2cnc3[nH]cc(-c4ccc(CCC(=O)O)cc4)c3c2)c1 : 99

In plain terms, CN(CCCCNC(=O)/C=C/c1ccccc1)C1CC2(CCN(C(=O)OC(C)(C)C)CC2)c2ccccc21 (centres undefined) has a documented Inhibition of 51

Noted for Cl.O=C(NCCCCN1CCC(c2ccc3c(c2O)CCCC3)CC1)c1ccc(NC(=O)c2ccc(Cl)cc2)cc1 : its Inhibition reads 100

So, O=[N+]([O-])c1cc2c(cc1C=NNc1nc(=Nc3ccccc3)[nH]c(=Nc3ccccc3)[nH]1)OCO2 ? Its Inhibition was 46
